Let's look at some compounds and their measured inhibition.
- TEST SYSTEM: Fibrinogen beta chain (Homo sapiens)
- PROCEDURE TEXT: small molecules displacing Tn7 from DD(E) complex – biochemical, fluorescence polarization, human fibrin, Tn7 probe, primary screen (AID 720508);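 further: 0% = plate median of compound wells and 100% = 10 µM Aha-Tn7 peptide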
- CONDITION PARAMETERS: FP displacement of FITC-Tn7 peptide from fibrin DD(E); at 8.3 µM; hits give high values; 0% = median of compound wells per plate
Out of some 370,000 compounds screened, about 500 (0.14%) were called active. The entries come from a sample that favours actives as a whole.
Lab book: enter the figure in %, no units written.

// known answers, use as guide
>>> observed("CC(C)=CCCC1(C)C=Cc2c(ccc3c2[nH]c2cc(O)c(C)cc23)O1 (stereo not given)")
-5.67
>>> observed("Cc1ccc(NS(=O)(=O)c2ccc3c(c2)NC(=O)CO3)cc1")
2.86
>>> observed("CC(C)C[C@H]1CNC(=S)N1C[C@H]1CCCN1C[C@H](Cc1ccc(O)cc1)N1C[C@H](Cc2ccc(O)cc2)N(CC2CCCCC2)C1=S")
-3.09
>>> observed("CCC(c1ccc(NC(=O)OC(C)(C)C)cc1)c1cc(OC)cc(OC)c1 (stereo not given)")
-0.44
>>> observed("COCc1cc(=O)n2[nH]c(C)c(-c3ccccc3)c2n1")
-2.38
>>> observed("Cc1nnc2n1N=C(c1ccc3c(c1)NC(=O)CO3)CS2")
15.4
>>> observed("CC1CCCCC12NC(=O)N(CC(=O)OCc1c(F)cccc1Cl)C2=O (stereo not given)")
5.49
>>> observed("C=CCOc1c2ccc(C(=O)N(CC)c3ccc(OC)cc3)cc2nn1C")
1.93

The observed inhibition for CC(Sc1ccc(S(=O)(=O)N2CCN(C)CC2)cn1)C(=O)NC1CCCC(C)C1C (stereo not given) when tested with Fibrinogen beta chain (Homo sapiens) stands at 4.47

The observed inhibition for NC(=O)c1ccc(N2CCCC2)nc1 when tested with Fibrinogen beta chain (Homo sapiens) stands at 2.52

* * *

Let's look at some molecules and their measured inhibition.
- TEST SYSTEM: Fibrinogen beta chain (Homo sapiens)
- PROCEDURE TEXT: small molecules displacing Tn7 from DD(E) complex – biochemical, fluorescence polarization, human fibrin, Tn7 probe, primary screen (AID 720508);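 further: 0% = plate median of compound wells and 100% = 10 µM Aha-Tn7 peptide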
- CONDITION PARAMETERS: FP displacement of FITC-Tn7 peptide from fibrin DD(E); at 8.3 µM; hits give high values; 0% = median of compound wells per plate
The whole screen tested about 370,000 compounds, of which about 500 (0.14%) were called active. The sample holds actives, similar compounds and a random draw of the others, so the mix is not that of the screen.
Lab book: enter the figure in %, no units written.

// known answers, use as guide
>>> observed("COc1cc(C(=S)N2CCOCC2)ccc1O")
14.7
>>> observed("Nc1ccc2nc3c(=O)[nH]c(=S)[nH]c3nc2c1")
7.86
>>> observed("COc1ccc(NC(=O)CN(C)C(=O)c2cccc(S(=O)(=O)N3CCN(c4ccccc4)CC3)c2)cc1")
-8.03
>>> observed("COc1ccccc1C(=O)N1CCN=C1SCc1cccnc1")
3.49
>>> observed("CO[C@H]1[C@@H]2C=CO[C@@H](O[C@H]3O[C@@H](CO)[C@H](O)[C@@H](O)[C@@H]3O)[C@@H]2[C@@]2(CO)O[C@@H]12")
-5.28
>>> observed("Cc1cc(NC(=O)C(C)SCC(=O)Nc2cccc(S(=O)(=O)N3CCCCCC3)c2)no1 (stereo not drawn)")
6.6
>>> observed("O=C1C(=O)N(CCCN2CCOCC2)C(c2ccc([N+](=O)[O-])cc2)/C1=C(\\O)c1ccc2c(c1)OCCO2 (stereo not drawn)")
-0.14
>>> observed("O=C(COC(=O)c1ccccc1NC(=O)c1ccco1)Nc1ccc2c(c1)OC(F)(F)O2")
-0.79
>>> observed("C=CCn1c(COc2ccc(F)cc2)nnc1SCC(=O)Nc1cccc(S(N)(=O)=O)c1")
2.08
>>> observed("COCCn1c(N)c(NCc2ccccc2)c(=O)[nH]c1=O")
8.37

// inhibition value for O=C(COC(=O)c1ccc(N2CCCC2=O)cc1)c1ccc(OC(F)F)cc1 : -9.52

// inhibition value for CCO/N=C(/C)c1c(O)cc(-c2ccccc2)n(-c2ccccc2)c1=O : 0.3

// inhibition value for CCO[C@H]1OC(C(=O)N2CCN(Cc3ccccc3)CC2)=C[C@@H](c2cn(C(C)=O)c3ccccc23)[C@@H]1CCCO : 7

// inhibition value for Cc1cc(Nc2cccc(F)c2)n2ncnc2n1 : -2.61

// inhibition value for O=C(Cn1cnc2ccccc2c1=O)Nc1cccc(S(=O)(=O)N2CCCCC2)c1 : -0.43

// inhibition value for Cc1cc(C(=O)OC(C)C(=O)NC2CCCCC2C)c(C)o1 (stereo not drawn) : -2.98

// inhibition value for C=CCOc1cccc(C2C(C(=O)c3ccc(C)o3)=C(O)C(=O)N2CCN2CCOCC2)c1 (stereo not drawn) : 0.33

// inhibition value for O=C(NCc1ccccc1)c1cccc(NC(=O)C2CCCCC2)c1 : 15.5

// inhibition value for C=CCOc1ccc(/C=C/C(=O)OCC(=O)NC2CCCCCC2)cc1 : 0.53

// inhibition value for O=C(COC(=O)c1ccc(O)cc1)Nc1nccs1 : 6.41

// inhibition value for COC(=O)CNC(=O)C(CCSC)NC(C)=O (stereo not drawn) : 3.11

// inhibition value for COCCNC(=O)CSc1nc2c(n1-c1ccccc1)CCCC2 : -3.74

// inhibition value for O=C(NCc1ccccc1)C1CCCN(c2nc3ccsc3c(=O)s2)C1 (stereo not drawn) : -2.86

// inhibition value for CN(CC(=O)Nc1ccc(F)c(F)c1F)C(=O)C1CC(=O)N(C2CCCC2)C1 (stereo not drawn) : 0.71

// inhibition value for Oc1ccccc1-c1cc(-c2ccc(Cl)cc2)n[nH]1 : -0.94

// inhibition value for CCNC(=O)c1cccc(NC(=O)C2CC(=O)N(CCc3ccccc3)C2)c1 (stereo not drawn) : 8.78

// inhibition value for CC(OC(=O)CN1C(=O)COc2ccccc21)C(=O)NCc1ccc(F)cc1 (stereo not drawn) : -2.52

// inhibition value for Cc1ccc(S(=O)(=O)c2c[nH]c3ccc(Cl)cc3c2=O)cc1 : -0.42

* * *

- TEST SYSTEM: Fibrinogen beta chain (Homo sapiens) (UniProt P02675)
- Sequence (P02675 whole entry, looked up): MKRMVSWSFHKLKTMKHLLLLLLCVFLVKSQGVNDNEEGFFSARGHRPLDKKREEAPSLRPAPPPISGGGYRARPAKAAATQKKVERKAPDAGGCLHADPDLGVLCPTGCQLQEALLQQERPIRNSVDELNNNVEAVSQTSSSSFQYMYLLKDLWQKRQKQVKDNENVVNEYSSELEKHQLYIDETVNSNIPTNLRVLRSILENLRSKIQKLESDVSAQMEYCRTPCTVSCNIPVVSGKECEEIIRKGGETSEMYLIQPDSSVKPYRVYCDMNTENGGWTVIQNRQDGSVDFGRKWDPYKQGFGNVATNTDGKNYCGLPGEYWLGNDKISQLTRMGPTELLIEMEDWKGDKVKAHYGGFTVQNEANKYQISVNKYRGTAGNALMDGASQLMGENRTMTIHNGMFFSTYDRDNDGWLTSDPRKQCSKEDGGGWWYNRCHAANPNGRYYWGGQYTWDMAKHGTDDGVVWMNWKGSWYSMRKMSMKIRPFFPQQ
- PROCEDURE TEXT: small molecules displacing Tn7 from DD(E) complex – biochemical, fluorescence polarization, human fibrin, Tn7 probe, primary screen (AID 720508);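 further: 0% = plate median of compound wells and 100% = 10 µM Aha-Tn7 peptide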
- CONDITION PARAMETERS: FP displacement of FITC-Tn7 peptide from fibrin DD(E); at 8.3 µM; 0% = median of compound wells per plate
Out of some 370,000 compounds screened, about 500 (0.14%) were called active.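 Rule for the calls: active = inhibition above the mean of compounds falling within the control limits plus 3 SD of them (cut at about 14% in these data); inactive = the rest.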 Shown is part of a subset that was picked to be rich in actives.
Just give me one of these, please: true (1) (active), false (0) (inactive)

Some solved cases for reference:
>>> class_assignment("COC(=O)[C@H](C(C)C)N1CCc2nnn(Cc3ccc(C)cc3)c2-c2ccccc2S1(=O)=O")
"false (0)"
>>> class_assignment("CC12CCC(C(=O)N(CCC#N)CCC#N)(CC1=O)C2(C)C (stereo not given)")
"false (0)"
>>> class_assignment("COc1cc(OC)cc(C(=O)NNC(=O)CNC(=O)c2ccc(Br)o2)c1")
"false (0)"

Kindly provide the recorded test outcome for the following compound: COc1ccc(-c2nc(CCNC(=O)c3ccc(Br)o3)cs2)cc1
true (1)

Kindly provide the recorded test outcome for the following compound: COc1ccc(OCCCC(=O)Nc2cccc(S(=O)(=O)N3CCCCCC3)c2)cc1
false (0)

* * *

Let's look at some molecules and their measured inhibition.
- TEST SYSTEM: Fibrinogen beta chain (Homo sapiens) (UniProt P02675)
- PROCEDURE TEXT: small molecules displacing Tn7 from DD(E) complex – biochemical, fluorescence polarization, human fibrin, Tn7 probe, primary screen (AID 720508);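 further: 0% = plate median of compound wells and 100% = 10 µM Aha-Tn7 peptide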
- CONDITION PARAMETERS: FP displacement of FITC-Tn7 peptide from fibrin DD(E); at 8.3 µM; hits give high values; 0% = median of compound wells per plate
The whole screen tested about 370,000 compounds, of which about 500 (0.14%) were called active. The full list was thinned out, with actives kept by preference.
Lab book: enter the figure in %, no units written.

// known answers, use as guide
>>> observed("Cn1c(CC(=O)NNC(=O)c2ccccc2F)nc2ccccc21")
14.2
>>> observed("Cc1ccccc1-c1csc(C(O)c2cccc(Cl)c2)n1 (stereo not given)")
-0.35
>>> observed("Cc1nn(C)c(C)c1S(=O)(=O)N1CCc2ccccc21")
-4.06
>>> observed("CCCCOC(=O)NCN1C(=O)C2C3C=CC(C3)C2C1=O (stereo not given)")
12.4
>>> observed("COc1ccc(-c2csc(C(O)c3cccc(Cl)c3)n2)cn1 (stereo not given)")
-9.22
>>> observed("COc1cccc(NC(=O)CN(C)CC(=O)c2c(N)n(Cc3ccccc3)c(=O)n(C)c2=O)c1")
-1.38
>>> observed("O=C(Cn1cnc2ccccc2c1=O)NNC(=O)c1ccccc1F")
-3.62
>>> observed("C[C@H](CO)N1C[C@H](C)[C@@H](CN(C)S(=O)(=O)c2ccc(F)cc2)Oc2ccc(NC(=O)CCC(F)(F)F)cc2C1=O")
-0.61

// inhibition value for O=C(CCNS(=O)(=O)c1cccs1)N1CCN(c2ccc(F)cc2)CC1 : 3.48

// inhibition value for CC(=O)c1ccc(NC(=O)CCNS(=O)(=O)c2cc(Br)cnc2N)cc1 : 1.85
